test system: MS2 coat protein; test: apparent KD of MS2 coat protein, switch OFF state (with FMN for OFF switches, without FMN for ON switches); designed switch direction (-1 OFF switch, 1 ON switch): -1; higher = weaker reporter binding; settings: FMN input: 0 or 200 uM; Eterna round: R93 (includes R88 designs)
Each entry falls into one class according to its apparent KD of MS2 coat protein; the ranges are lower: < 20 nM; middle: ≥ 20 nM and < 50 nM; upper: ≥ 50 nM

Study these solved cases before continuing.
AAGAAAGGAGGAUAUACAUGAGGAUCACCCAUGUAAAAGAAAGAAAGGGAAAAGAAAAGUAGAAGGCCUAAGAA [Shoshenq IV] : middle
AACUGUACAGGAUAUACAUGAGGAUCACCCAUGUGAGAAUUAAGUGGGAAACCACAAAGUAGAAGGGUACAGGA [Mat - Exclusion 3 - JL mod - D19] : upper
AAAAAACAUGAGGAUCACCCAUGUCAGGAUAUCCGGAAAAAAAAAAAAAAAAGGCGUUGGAGAAGGGACAUUCC [Chica Displaced 8 - Jieux - Exclusion 1] : middle

Returns: class label. Input: AAAAGCUCAGGAUAUACGGUCUGUUGUUGAAAAAGUAAAAAACAUGAGGAUCACCCAUGUAGAAGGGAGCGAAA [Exclusion2-cac1]
upper

Returns: class label. Input: AAGAAAGGAGGAUAUACAUGAGGAUCACCCAUGUAAAAGAAAGAAAAGGGAAAGAAAAGUAGAAGGCCUAAGAA [Usermaatre-meryamun Ramesses III]
middle

Returns: class label. Input: AAAAAGGGAGGAUAUACAGGAGGUCAAAAAAAAAAAAAAAAACAUGAGGAUCACCCAUGUAGAAGGCUUAAAAA [Ecls2-III]
middle

###

system: MS2 coat protein; assay: apparent KD of MS2 coat protein; designed switch direction (-1 OFF switch, 1 ON switch): -1; higher = weaker reporter binding; conditions: input ligand: FMN 200 uM
// reported apparent KD of MS2 coat protein per item
State just the number; it will be interpreted in µM.

AAAUAGCUAGAGGAUAUCGGAUAGAAUUUAUUACGAGAAGGUUAGACAUGAGGAUCACCCAUGUUCUGUUGGGA [EX6 #22] (Eterna round: R97, puzzle: Exclusion 6) : 0.07

For the sequence UUAUAACAUGAGGAUCACCCAUGUUAGGAUAUCGCAGUAAGCUUCAGUAAUGAGCAUUCGAGAAGGAACGGGUA [Eternabot (L2) Solution 63] (Eterna round: R97, puzzle: Exclusion 1) , report apparent KD of MS2 coat protein.
0.022

For the sequence ACGAUGACCGAAAAGUGUCAACUGACAUGAGGAUCACCCAUGUAGGAUAUGGCUACGAAAAGUAGUCAGAAGGACAUGUCAUCA [Omei Exc(NG) 3 Av6] (Eterna round: R96, puzzle: Exclusion NG 3) , report apparent KD of MS2 coat protein.
0.0176

For the sequence UGCGUUUGAGGAUAUACGUAGAAAUAGAUUCAUGUAAAACUACAUGAGGAUCACCCAUGUAGAAGGCAAGCGCU [Mat - Exclusion 2 - JL Mod - D39] (Eterna round: R97, puzzle: Exclusion 2) , report apparent KD of MS2 coat protein.
0.239

###

tested on: MS2 coat protein; assay: apparent KD of MS2 coat protein; higher = weaker reporter binding; conditions: Eterna round: R107; input ligand: none
// reported apparent KD of MS2 coat protein per item
Answer with the figure and its unit, nothing else.

Below: 3 sequences and their reported apparent KD of MS2 coat protein.
GGUCUCUGGAGCGAUACCAGCUUAAUCGUACUGGCCAGGUACAUGAGGAUCACCCAUGUAAGCCCUUGGCAGCGCUCCAGAGACC [#1 Exclusion - Theophylline B Attempt #11 (HarryS)] : 12.9 nM
CAAUUUAUAUGAAGGAGCGUCGAAAAUGGGUAAACAUGAGGAUCACCCAUGUAAAGGGAACGACAGGUAGGUCGCAUAUGGAUUG [AstromonsSSArgB#10] : 180 nM
CCUGAUAACUGAAGGAGCGAGAAACCCUACAUGAGGAUCACCCAUGUAUACACGGGAACUUCUCAGGUAGGUCGCAGUUUGUCAG [Adiso] : 101 nM

For the sequence AGUCUUAUAGGAAGGAGCGCAUACUUCACAUGAGGAUCACCCAUGUCAAGACGUGAGUCAGUGCAGGUAGGUCGCCUAACUAAGA [Same State - Arginine B (Freestyle 13)] , report apparent KD of MS2 coat protein.
29.2 nM
